// data source = PubChem BioAssay AID1963843

Tested on: 616215-338-R-J1-PDC complex spheroid viability
PROTOCOL_TEXT: Anticancer human tumor 616215-338-R-J1-PDC patient-derived colon adenocarcinoma cell line growth inhibition [POLQ]
STUDY_CONDITIONS: curve of first compound; second compound 0.1 µM
pIC50: −log10 of the molar value.
REPORTED_ENDPOINT: pIC50

Please review the following examples before continuing.
COMPOUND	pIC50
C#Cc1c(F)ccc2cc(O)cc(-c3ncc4c(N5CC6CCC(C5)N6)nc(OCC56CCCN5CC(F)C6)nc4c3F)c12 (stereo unspecified) + COC1C(OC(N)=O)C(O)C(Oc2ccc3c(O)c(NC(=O)c4ccc(O)c(CC=C(C)C)c4)c(=O)oc3c2C)OC1(C)C	< 5.00
O=C(c1cc(Cc2n[nH]c(=O)c3ccccc23)ccc1F)N1CCN(C(=O)C2CC2)CC1 + Cc1cccc(N(C)C(=O)C2C(O)CCN2c2nc(C)cc(C(F)(F)F)c2C#N)c1	< 5.00
O=c1[nH]cc(F)c(=O)[nH]1 + COC1C(OC(N)=O)C(O)C(Oc2ccc3c(O)c(NC(=O)c4ccc(O)c(CC=C(C)C)c4)c(=O)oc3c2C)OC1(C)C	< 5.00

List the reported pIC50 of each compound below.
1. CC1COCCN1c1cc(-c2ccnn2C)c2ccnc(-c3ccn[nH]3)c2n1 (stereo unspecified) + Nc1ccc(C#CCN(C(=O)Cc2ncc(C(F)(F)F)cc2C(F)(F)F)c2ccc(F)cc2)nn1
2. CC1COCCN1c1cc(C2(S(C)(=N)=O)CC2)nc(-c2ccnc3[nH]ccc23)n1 (stereo unspecified) + Nc1ccc(C#CCN(C(=O)Cc2ncc(C(F)(F)F)cc2C(F)(F)F)c2ccc(F)cc2)nn1
3. Nc1ccn(C2OC(CO)C(O)C2(F)F)c(=O)n1 (stereo unspecified) + Cc1cccc(N(C)C(=O)C2C(O)CCN2c2nc(C)cc(C(F)(F)F)c2C#N)c1
4. CC(C)n1c(=O)n(C)c2cnc3cc(F)c(-c4ccc(OCCCN5CCCCC5)nc4)cc3c21 + Nc1ccc(C#CCN(C(=O)Cc2ncc(C(F)(F)F)cc2C(F)(F)F)c2ccc(F)cc2)nn1
5. CCc1c2c(nc3ccc(O)cc13)-c1cc3c(c(=O)n1C2)COC(=O)[C@]3(O)CC + COC1C(OC(N)=O)C(O)C(Oc2ccc3c(O)c(NC(=O)c4ccc(O)c(CC=C(C)C)c4)c(=O)oc3c2C)OC1(C)C
6. COc1cc2cc(C(=O)CCC(=O)O)sc2cc1OC + Nc1ccc(C#CCN(C(=O)Cc2ncc(C(F)(F)F)cc2C(F)(F)F)c2ccc(F)cc2)nn1
7. O=C(c1cc(Cc2n[nH]c(=O)c3ccccc23)ccc1F)N1CCN(C(=O)C2CC2)CC1 + Nc1ccc(C#CCN(C(=O)Cc2ncc(C(F)(F)F)cc2C(F)(F)F)c2ccc(F)cc2)nn1

## Output
1. 6.78
2. 5.27
3. 7.27
4. < 5.00
5. 7.06
6. < 5.00
7. < 5.00

## Input Item Nc1ccn(C2OC(CO)C(O)C2(F)F)c(=O)n1 (stereo unspecified) + Nc1ccc(C#CCN(C(=O)Cc2ncc(C(F)(F)F)cc2C(F)(F)F)c2ccc(F)cc2)nn1 has what recorded pIC50?
## Output > 7.50

----------
Field: viability, T/C. Provide a value for each of the molecules that follow.
System: 616215-338-R-J1-PDC complex spheroid viability
PROTOCOL_TEXT: Anticancer human tumor 616215-338-R-J1-PDC cell line growth inhibition [POLQ];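 also: spheroids exposed to compounds for one week before readout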;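 as to viability, T/C: percent viability relative to DMSO vehicle wells taken as 100%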
STUDY_CONDITIONS: second compound 0.316 µM; first compound 0.01 µM; stronger effect = lower value
Numbers only, in %.

MOLECULE	UNIT_ABBREV	TEST_VALUE
CC[C@@]1(O)C(=O)OCc2c1cc1n(c2=O)Cc2cc3c(CN(C)C)c(O)ccc3nc2-1 + Cc1cccc(N(C)C(=O)C2C(O)CCN2c2nc(C)cc(C(F)(F)F)c2C#N)c1	%	114

List the reported viability, T/C of each molecule below.
1. Cn1ncnc1[C@H]1c2n[nH]c(=O)c3cc(F)cc(c23)N[C@@H]1c1ccc(F)cc1 + COC1C(OC(N)=O)C(O)C(Oc2ccc3c(O)c(NC(=O)c4ccc(O)c(CC=C(C)C)c4)c(=O)oc3c2C)OC1(C)C
2. CCc1c2c(nc3ccc(O)cc13)-c1cc3c(c(=O)n1C2)COC(=O)[C@]3(O)CC + Cc1cccc(N(C)C(=O)C2C(O)CCN2c2nc(C)cc(C(F)(F)F)c2C#N)c1

## Output
[104, 87.1]
